Biological target: Oxysterols receptor LXR-beta (Homo sapiens)
Sequence (whole entry): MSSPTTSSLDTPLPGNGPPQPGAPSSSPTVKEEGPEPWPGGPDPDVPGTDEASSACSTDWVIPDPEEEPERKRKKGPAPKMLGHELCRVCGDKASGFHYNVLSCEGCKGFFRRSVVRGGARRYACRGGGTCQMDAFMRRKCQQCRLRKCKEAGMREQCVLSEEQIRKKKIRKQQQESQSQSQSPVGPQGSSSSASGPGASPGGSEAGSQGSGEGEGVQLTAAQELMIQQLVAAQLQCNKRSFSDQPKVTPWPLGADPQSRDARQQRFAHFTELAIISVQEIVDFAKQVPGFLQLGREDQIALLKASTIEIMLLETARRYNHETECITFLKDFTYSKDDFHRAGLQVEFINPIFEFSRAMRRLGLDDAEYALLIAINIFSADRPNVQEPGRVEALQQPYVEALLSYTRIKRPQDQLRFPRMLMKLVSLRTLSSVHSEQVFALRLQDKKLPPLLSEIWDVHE
Assay: Agonist activity at full length human LXRbeta expressed in HEK293 cells harboring LXRE-Luc promoter at 10 uM by luciferase reporter gene assay relative to T0901317
Type: cell-based
Active and inactive are the calls of the source. The rule behind the calls is not given here.
measurement-kind: Emax

As a guide, the following entries are already answered.
structure-notation: COc1cccc(-c2nc(-c3ccccc3)n(C(C)=O)n2)c1
target-entity: Oxysterols receptor LXR-beta (Homo sapiens)
measured-value: 78%
//
structure-notation: Brc1ccc(-c2n[nH]c(-c3ccccc3)n2)cc1
target-entity: Oxysterols receptor LXR-beta (Homo sapiens)
measured-value: 62%
//
structure-notation: CCn1nc(-c2ccc(Br)cc2)nc1-c1ccccc1
target-entity: Oxysterols receptor LXR-beta (Homo sapiens)
measured-value: 71%
//
structure-notation: Clc1ccccc1-c1n[nH]c(Cc2ccccc2)n1
target-entity: Oxysterols receptor LXR-beta (Homo sapiens)
measured-value: 61%
//
structure-notation: Clc1ccc(-c2nc(-c3ccccc3)n(Cc3ccccc3)n2)cc1
target-entity: Oxysterols receptor LXR-beta (Homo sapiens)
measured-value: 61%

q: Entry "CCn1nc(-c2ccccc2)nc1-c1ccccc1" : reported Emax = ?
a: inactive
